Cited source: patent US20250340637A1

# STUDY_SYSTEM: T1, HuCD3E (Homo sapiens, UniProt P07766 23-126, limits assumed)
# T1 construct: Recombinant analyte in SPR and antigen in ELISA; also called human CD3; human CD3 epsilon
# T1 sequence (P07766 23-126 limits assumed): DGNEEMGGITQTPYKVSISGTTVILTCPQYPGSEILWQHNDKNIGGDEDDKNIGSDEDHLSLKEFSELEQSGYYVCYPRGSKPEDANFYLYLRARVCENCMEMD
# EXPERIMENT_NOTES: SPR, Biacore 8K; CD3 Affinity column: Hi
VALUE_KIND: Kd

According to the records, this binder ABP100s.11.5 (antibody, V domains shown) VH: EVQLLESGGGLVQPGGSLRLSCAASGFTFNTYAMNWVRQAPGKGLEWVSRIRSKYNNYATYYADSVKDRFTISRDNSKNTLYLQMNSLRAEDTAVYYCAKHGNFGNSYVSWFAYWGQGTTVTVSS VL: QAVVTQEPSLTVSPGGTVTLTCRSSTGAVTTSNYANWFQQKPGQAPRTLIYGTNKRAPWTPARFSGSLLGGKAALTLSGAQPEDEAEYYCALWYSNLWVFGGGTKLTVL displays Kd of < 10 nM

According to the records, this binder ABP100s.12.0 (antibody, V domains shown) VH: EVQLLESGGGLVQPGGSLRLSCAASGFTFNTYAMNWVRQAPGKCLEWVSRIRSKYNNYATYYADSVKDRFTISRDNSKNTLYLQMNSLRAEDTAVYYCAKHGNFGNSYVSWFAYWGQGTTVTVSS VL: QAVVTQEPSLTVSPGGTVTLTCRSSTGAVTTSNYANWFQQKPGQAPRTLIYGTNKRAPWTPARFSGSLLGGKAALTLSGAQPEDEAEYYCALWYSNLWVFGCGTKLTVL displays Kd of < 10 nM

According to the records, this binder ABP100s.12.5 (antibody, V domains shown) VH: EVQLLESGGGLVQPGGSLRLSCAASGFTFNTYAMNWVRQAPGKCLEWVSRIRSKYNNYATYYADSVKDRFTISRDNSKNTLYLQMNSLRAEDTAVYYCAKHGNFGNSYVSWFAYWGQGTTVTVSS VL: QAVVTQEPSLTVSPGGTVTLTCRSSTGAVTTSNYANWFQQKPGQAPRTLIYGTNKRAPWTPARFSGSLLGGKAALTLSGAQPEDEAEYYCALWYSNLWVFGCGTKLTVL displays Kd of < 10 nM
